# test-target: Orexin/Hypocretin receptor type 1 (Homo sapiens) (UniProt O43613)
# Sequence (O43613 whole entry, looked up): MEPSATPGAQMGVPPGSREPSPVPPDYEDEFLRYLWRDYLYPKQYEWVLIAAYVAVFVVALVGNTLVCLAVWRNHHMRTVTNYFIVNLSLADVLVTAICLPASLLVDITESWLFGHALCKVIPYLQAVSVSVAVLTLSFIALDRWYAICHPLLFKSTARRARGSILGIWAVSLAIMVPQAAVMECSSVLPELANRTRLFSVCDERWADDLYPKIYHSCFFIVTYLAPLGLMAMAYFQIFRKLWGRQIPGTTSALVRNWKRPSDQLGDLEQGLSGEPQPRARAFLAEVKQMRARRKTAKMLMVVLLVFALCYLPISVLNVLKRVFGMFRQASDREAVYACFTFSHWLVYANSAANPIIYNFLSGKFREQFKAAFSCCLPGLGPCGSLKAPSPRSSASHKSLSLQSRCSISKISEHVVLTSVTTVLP
# protocol-details: antagonists of human orexin 1 receptor (OX1R) (AID 485270);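 further: 0% = agonist challenge alone and 100% = reference antagonist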
# condition-parameters: OX1R-expressing cells, FRET antagonist read-out; at 6.6 µM; hits give high values
Among all 330,000 compounds or so, about 5,800 (1.8%) were called active. The entries come from a sample that favours actives as a whole.
inhibition for assorted molecules
Give the quantity in %, number only.

Record excerpt, results attached:
Requested read-out: inhibition. Entry: `COC(=O)C1CCN(C(=O)COC(=O)c2cc(S(=O)(=O)N3CCOCC3)ccc2C)CC1` -3.08

Requested read-out: inhibition. Entry: C#CCOCCOCCOCCNc1nc(N2CCN(C(=O)C([C@@H](C)O)n3cc([C@@H](N)CCCCN)nn3)CC2)nc(N2CCN(C(=O)[C@H](CCCCN)n3cc(CN)nn3)CC2)n1 (stereo not given in full) 6.34

Requested read-out: inhibition. Entry: `COc1ccc(NC(=O)CSc2nnc(-c3cccs3)n2Cc2ccco2)cc1OC` 41.6

Requested read-out: inhibition. Entry: `O=C1CN(C(=O)COC(=O)/C=C/c2ccc(F)cc2)c2ccccc2N1` 6.47

Requested read-out: inhibition. Entry: `CC[C@@H](C)[C@@H]1CN([C@@H](C)CN2CCC[C@H]2CN2C(N)=NC[C@H]2C(C)C)C(=N)N1CCc1ccc(Cl)c(Cl)c1` -3.86

Requested read-out: inhibition. Entry: `Cc1ccc(NC(=O)c2sccc2C)cc1[N+](=O)[O-]` 14.5

Next:
Requested read-out: inhibition. Entry: `CC(=O)Nc1ccc(Nc2c([N+](=O)[O-])cc(S(C)(=O)=O)cc2[N+](=O)[O-])cc1` 98

Requested read-out: inhibition. Entry: `COc1ccc(NC(=O)CN2C(=O)CSc3ccc(S(=O)(=O)N4CCC(C)CC4)cc32)cc1` 3.75

Requested read-out: inhibition. Entry: O=C(C1CCCO1)N1CCC(c2nc3ccccc3[nH]2)CC1 (stereo not given) -1.4

Requested read-out: inhibition. Entry: `COc1ccc(CNc2nc(NCc3ccc(OC)cc3)c3ncn(C4CCCC4)c3n2)cc1` 15.3

Requested read-out: inhibition. Entry: CCOC(=O)C1=C(C)N(C[C@@H]2CC[C@@H](Cc3ccc(-c4ccccc4)cc3)O2)C(=O)NC1c1ccc([N+](=O)[O-])cc1 (stereo not given in full) 5.68

Requested read-out: inhibition. Entry: `O=C(Nc1ccccc1F)c1ccc(Cn2cc(Br)cn2)cc1` 8.12

Requested read-out: inhibition. Entry: `CCOC(=O)c1c(NC(=O)C2CCN(S(=O)(=O)c3ccc(Cl)cc3)CC2)sc2c1CCCC2` 6.08

Requested read-out: inhibition. Entry: `CC(=O)Oc1ccc(C(C)=O)c2c1OCCO2` 88.7

These entries and their values trace back to PubChem BioAssay AID485270.
